- Test system: NCI-60 cancer cell lines
- Protocol Text: NCI-60 cancer cell line drug screen (GI50, MGM)
- Format: cell-based, human
- Details: Homo sapiens, NCI-H522, Non-Small Cell Lung Cancer, NCI-H522; read-out: Antiproliferative Activities [GI50 (μM)]
So basically: is GI50 under 0.8 µM? Then true (1). Not under? Then false (0).

Would you please look over these solved cases?
>  <Smiles Repr>
COc1cc2c(cc1O)-c1c(c3ccc([N+](=O)[O-])cc3c(=O)n1CCCn1ccnc1)C2=O

>  <Class Name>
true (1)

$$$$
>  <Smiles Repr>
COc1cc2c(cc1O)-c1c(c3ccc([N+](=O)[O-])cc3c(=O)n1CCCN1CCOCC1)C2=O

>  <Class Name>
true (1)

$$$$

Enquiry: Dear reviewer, please state whether `COc1cc2c3c(n(CCCNC4=NCCS4)c(=O)c2cc1OC)-c1cc2c(cc1C3=O)OCO2` has GI50 strictly beneath 0.8 µM.
Return: true (1)

Enquiry: Dear reviewer, please state whether `COc1cc2c3c(n(CCCN4CCN(C)CC4)c(=O)c2cc1OC)-c1cc2c(cc1C3=O)OCO2` has GI50 strictly beneath 0.8 µM.
Return: false (0)

Enquiry: Dear reviewer, please state whether `COc1cc2c3c(n(CCCn4ccnc4)c(=O)c2cc1OC)-c1cc2c(cc1C3=O)OCO2` has GI50 strictly beneath 0.8 µM.
Return: true (1)

Enquiry: Dear reviewer, please state whether `COc1cc2c3c(n(CCCNCCN)c(=O)c2cc1OC)-c1cc2c(cc1C3=O)OCO2` has GI50 strictly beneath 0.8 µM.
Return: true (1)

Enquiry: Dear reviewer, please state whether `COc1cc2c3c(n(CCCN(C)C)c(=O)c2cc1OC)-c1cc2c(cc1C3=O)OCO2` has GI50 strictly beneath 0.8 µM.
Return: true (1)

Enquiry: Dear reviewer, please state whether `COc1cc2c3c(n(CCCN)c(=O)c2cc1OC)-c1cc2c(cc1C3=O)OCO2` has GI50 strictly beneath 0.8 µM.
Return: true (1)

Enquiry: Dear reviewer, please state whether `O=C1c2ccccc2-c2c1c1ccccc1c(=O)n2CCCNCCO` has GI50 strictly beneath 0.8 µM.
Return: true (1)

Enquiry: Dear reviewer, please state whether `CN(C)CCCn1c2c(c3cccnc3c1=O)C(=O)c1ccccc1-2` has GI50 strictly beneath 0.8 µM.
Return: false (0)

Enquiry: Dear reviewer, please state whether `COc1ccc2c(c1)C(=O)c1c-2n(CCCN2CCOCC2)c(=O)c2ccccc12` has GI50 strictly beneath 0.8 µM.
Return: false (0)

Enquiry: Dear reviewer, please state whether `CN(C)CCCn1c2c(c3ccc(N4CCNCC4)cc3c1=O)C(=O)c1ccccc1-2` has GI50 strictly beneath 0.8 µM.
Return: false (0)

Enquiry: Dear reviewer, please state whether `CN(C)CCCn1c2c(c3ccc(-c4ccn[nH]4)cc3c1=O)C(=O)c1ccccc1-2` has GI50 strictly beneath 0.8 µM.
Return: false (0)
